# MEASURED_TARGET: GlcNAc(b1-3)Gal(b1-4)GlcNAc(b1-3)Gal(b1-4)GlcNAc(b1-3)Gal(b1-4)GlcNAc(b1-3)Gal(b1-4)GlcNAc(b1-2)[GlcNAc(b1-3)Gal(b1-4)GlcNAc(b1-3)Gal(b1-4)GlcNAc(b1-3)Gal(b1-4)GlcNAc(b1-3)Gal(b1-4)GlcNAc(b1-6)]Man(a1-6)[GlcNAc(b1-3)Gal(b1-4)GlcNAc(b1-3)Gal(b1-4)GlcNAc(b1-3)Gal(b1-4)GlcNAc(b1-3)Gal(b1-4)GlcNAc(b1-2)Man(a1-3)]Man(b1-4)GlcNAc(b1-4)[Fuc(a1-6)]GlcNAc
# EXPERIMENT_DESCRIPTION: glycan array binding signal (z-score within array); higher = stronger binding
# CONDITIONS: glycan notation: IUPAC condensed, linker removed
Shown is part of a subset that was picked to be rich in the strongest signals.
VALUE_KIND: glycan array binding signal (z-score)
Provide a numeric answer; units are not to be included.

Problem: Fill in: glycan array binding signal (z-score) of Epa8 (Candida glabrata) (protein) MGSSHHHHHHSSGLVPRGSHMASSRALSDYPLGCSPLLGTKLTPGLSMELYEYPLDNHGIGPHCWDPAYLNPEYPRTGFESHKLIGTAQNVMSLNFEHRTQDCHVEFSNLPASFNFPDQITLTNFTMLLYGYFKPKESGRYRFHMEADDLLLMNLGAGNAFDCCAHEATRNNLGDYIAYDIWAGTRKDVEVFLEKEVFYPLRLFFNNRDGRAALDFSYYLNGATEPGTDIPELLFSLPDGESCPAYI is ___
Solution: 2.23

Problem: Could you tell me which glycan array binding signal (z-score) is on file for Epa19 (Candida glabrata) (protein) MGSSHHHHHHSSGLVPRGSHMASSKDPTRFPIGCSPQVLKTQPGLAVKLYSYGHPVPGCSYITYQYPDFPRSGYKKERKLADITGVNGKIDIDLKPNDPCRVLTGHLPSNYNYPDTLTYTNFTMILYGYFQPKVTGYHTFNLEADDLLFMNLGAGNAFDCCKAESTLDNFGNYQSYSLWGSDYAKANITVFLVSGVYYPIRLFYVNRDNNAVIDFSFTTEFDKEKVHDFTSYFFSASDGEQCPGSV ?
Solution: 2.39

Problem: What does the record list as glycan array binding signal (z-score) for SJCP1084 (Schistosoma japonicum) (protein) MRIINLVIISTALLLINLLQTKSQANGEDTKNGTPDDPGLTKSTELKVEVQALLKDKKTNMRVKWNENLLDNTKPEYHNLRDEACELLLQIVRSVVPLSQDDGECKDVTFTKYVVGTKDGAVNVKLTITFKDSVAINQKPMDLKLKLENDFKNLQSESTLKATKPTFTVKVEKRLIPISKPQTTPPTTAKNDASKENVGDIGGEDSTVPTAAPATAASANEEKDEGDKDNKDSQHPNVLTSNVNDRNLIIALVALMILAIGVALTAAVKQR ?
Solution: 2.68
